Measured values drawn from patent US20140357655A1 for this set.

This section presents compounds with their documented log10 IC50 values.
target-desc: human GnRH receptor (Homo sapiens, UniProt P30968)
Sequence (P30968 1-328): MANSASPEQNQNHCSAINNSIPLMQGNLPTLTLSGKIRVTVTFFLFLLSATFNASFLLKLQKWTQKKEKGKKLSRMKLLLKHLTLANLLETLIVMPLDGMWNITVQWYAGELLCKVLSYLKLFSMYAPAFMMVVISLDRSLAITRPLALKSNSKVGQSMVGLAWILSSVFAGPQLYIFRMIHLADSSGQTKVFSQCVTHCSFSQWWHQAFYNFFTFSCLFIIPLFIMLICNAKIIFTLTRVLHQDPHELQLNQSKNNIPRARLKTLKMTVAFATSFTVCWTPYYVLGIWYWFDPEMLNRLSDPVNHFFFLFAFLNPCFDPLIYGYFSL
test-details: IP-One HTRF assay with buserelin (at EC80) stimulation
stated-conditions: CHO cells stably expressing human GnRH receptor, read-out: Potency in IP-One HTRF assay, given as IC50
The base-10 logarithm of IC50, taken with IC50 in nM, is what appears here.

Please review the entries below; each comes with its answer.
* O=C(NCC1CCCC1)c1ccc2c(c1)C1(CCS(=O)(=O)CC1)C(C1CC1)N2S(=O)(=O)c1ccc(F)cc1 (single isomer, unassigned) [Example 38.1] | 1.94
* O=C(NCc1ncccc1Cl)c1ccc2c(c1)C1(CCS(=O)(=O)CC1)C(C1CC1)N2S(=O)(=O)c1ccc(F)cc1 (racemic) [Example 14] | 2.39

-- ask Given the entry CS(=O)(=O)c1cccc(NC(=O)c2ccc3c(c2)C2(CCS(=O)(=O)CC2)C(C2CC2)N3S(=O)(=O)c2ccc(F)cc2)c1 (single isomer, unassigned) [Example 23.2] , what log10 IC50 was observed with human GnRH receptor (Homo sapiens, UniProt P30968)?
-- reply 2.18

-- ask Provide value of log10 IC50 for this record tested with human GnRH receptor (Homo sapiens, UniProt P30968): O=C(O)c1cccc(NC(=O)c2ccc3c(c2)C2(CCS(=O)(=O)CC2)C(C2CC2)N3S(=O)(=O)c2cccc(OC(F)F)c2)c1 (single isomer, unassigned) [Example 90.2]
-- reply 3.46

-- ask Checklist item: log10 IC50 tested on human GnRH receptor (Homo sapiens, UniProt P30968), entry N#Cc1cccc(S(=O)(=O)N2c3ccc(C(=O)NCc4ncccc4C(F)(F)F)cc3C3(CCS(=O)(=O)CC3)C2C2CC2)c1 (single isomer, unassigned) [Example 79.1] , value?
-- reply 1.73

-- ask Notebook: pull reported log10 IC50 for human GnRH receptor (Homo sapiens, UniProt P30968), entry O=C(NCCc1ccccc1Cl)c1ccc2c(c1)C1(CCS(=O)(=O)CC1)C(C1CC1)N2S(=O)(=O)c1ccc(F)cc1 (centres unmarked)
-- reply 3.42

-- ask log10 IC50 of O=C(NCC1CCCCC1)c1ccc2c(c1)C1(CCS(=O)(=O)CC1)C(C1CC1)N2S(=O)(=O)c1ccc(F)cc1 (single isomer, unassigned) [Example 36.1] on human GnRH receptor (Homo sapiens, UniProt P30968)?
-- reply 2.03
